# System: A2780
# protocol.description: Anti-proliferative effect (CellTiter-Glo, 72 h), A2780
# Type: cell-based
# settings: A2780 cells, median, read-out: IC50 antiproliferation assay A2780 [M] (median)
property: IC50 (M)

Use the examples below as a reference point.
Cc1c2c(nn1CC(F)(F)F)COCCCCn1c(C(=O)O)c(CCCOc3cccc4ccccc34)c3cccc-2c31 = 2.59e-06
CCS(=O)(=O)N1CCN(c2ccc(N3CCCn4c(C(=O)O)c(CCCOc5cccc6ccccc56)c5cccc(c54)-c4c(C)nn(C)c4C3)cc2)CC1 (single isomer, unassigned; enantiomer 2) = 7.54e-06
Cc1ccc2c(C(C)CCOc3cccc4cc(F)ccc34)c(C(=O)O)n3c2c1-c1c(nn(C)c1C)COCCCC3 (single isomer, unassigned) [Example 278] = 1.26e-05
CN1CCCCn2c(C(=O)O)c(CCCOc3cccc4ccccc34)c3cccc(c32)-c2c(CC(F)(F)F)nn(C)c2C1 (single isomer, unassigned) [Example 224] = 1.45e-05
COCCn1nc(C2CC2)c2c1COCCCCn1c(C(=O)O)c(CCCOc3cccc4c3CCCC4)c3cccc-2c31 (single isomer, unassigned; enantiomer 2) = 2.82e-05
Cn1nc(C(F)(F)F)c2c1COCCCCn1c(C(=O)O)c(CCCOc3cccc4ccccc34)c3cccc-2c31 (single isomer, unassigned) [Example 217] = 2.92e-05
COCc1nn(C)c2c1-c1cccc3c(CCCOc4cccc5ccccc45)c(C(=O)O)n(c13)CCCCN(C)C2 (single isomer, unassigned; enantiomer 2) [Example 185] = 1.88e-05

I = CC(C)c1c2c(nn1C)CN(C)CCCn1c(C(=O)O)c(CCCOc3cccc4ccccc34)c3cccc-2c31 (single isomer, unassigned; enantiomer 2)
II = CN1CCCn2c(C(=O)O)c(CCCOc3cccc4ccccc34)c3cccc(c32)-c2c(COc3ccc(S(C)(=O)=O)cc3)nn(C)c2C1 (single isomer, unassigned)
Task: Which one would you say has the larger IC50 value: I , or II ? Identify your selection by its label.
Output: II
(II: 1.83e-05 M, I: 1.19e-05 M)

----------
# System: SUDHL10
# protocol.description: Induction of cytotoxicity (CellTiter-Glo, 5 h), SUDHL10
# settings: read-out: Cytotox SUDHL10 [M] (median); SUDHL10 cells, cytotoxicity induction, CellTiter-Glo, 5 h incubation, median
Below: a set of entries, each annotated with reported IC50.
Form entry: value (M) — number only.

Cc1ccc2c(CCCOc3cccc4ccccc34)c(C(=O)O)n3c2c1-c1c(nn(C)c1C)CN(C)CCC3 (single isomer, unassigned; enantiomer 2) [Example 074] = 1.17e-05
CCc1nn(C)c2c1-c1c(C)ccc3c(C(C)CCOc4cccc5cc(F)ccc45)c(C(=O)O)n(c13)CCCCOC2 (single isomer, unassigned) [Example 265] = 7.35e-06

Short answer for CCc1nn(C)c2c1-c1c(C)ccc3c(C(C)CCOc4cccc5ccccc45)c(C(=O)O)n(c13)CCCCOC2 (single isomer, unassigned) [Example 272] : IC50 was 2.5e-05

Short answer for Cc1ccc2c(CCCOc3cccc4ccccc34)c(C(=O)O)n3c2c1-c1c(C)nn(C)c1COCCC3 (single isomer, unassigned; enantiomer 2) [Example 026] : IC50 was 2.58e-05

Short answer for CCc1nn(CCN2CCOCC2)c2c1-c1cccc3c(CCCOc4cccc5ccccc45)c(C(=O)O)n(c13)CCCCOC2 (single isomer, unassigned; enantiomer 2) [Example 200] : IC50 was 1.99e-05

----------
# Test system: MV-4-11
# protocol.description: Anti-proliferative effect (CellTiter-Glo, 72 h), MV-4-11
# Type: cell-based
# settings: MV-4-11 cells, median, read-out: IC50 antiproliferation assay MV-4-11 [M] (median)
property: IC50 (M)

a = Cn1nc(COc2ccc(N3CCN(S(C)(=O)=O)CC3)cc2)c2c1COCCCCn1c(C(=O)O)c(CCCOc3cccc4ccccc34)c3cccc-2c31 (single isomer, unassigned; enantiomer 1) [Example 1-9]
b = Cn1nc(CN2CCOCC2)c2c1COCCCn1c(C(=O)O)c(CCCOc3cccc4ccccc34)c3cccc-2c31 (single isomer, unassigned; enantiomer 2)
c = CN1CCCn2c(C(=O)O)c(CCCOc3cccc4ccccc34)c3cccc(c32)-c2c(nn(C)c2COc2ccc(N3CCN(S(=O)(=O)N(C)C)CC3)cc2)C1 (single isomer, unassigned; enantiomer 1) [Example 1-112]
Task: Parameters: sort_by = IC50; order = desc; input = items above. Put the labels in the order asked and list them.
Output: b, a, c
(b: 2.27e-05 M, a: 8.59e-06 M, c: 2.69e-06 M)

----------
# Test system: OPM2
# protocol.description: Anti-proliferative effect (CellTiter-Glo, 72 h), OPM2
# Assay type: cell-based
# settings: Homo sapiens, OPM-2, 72 h, OPM2 cells, median, read-out: IC50 antiproliferation assay OPM2 [M] (median)
Below: a set of entries, each annotated with reported IC50.
Form entry: value (M) — number only.

Use the examples below as a reference point.
Cc1nn(C)c2c1-c1cccc3c(CCCOc4cccc5c4CCCC5)c(C(=O)O)n(c13)CCCCOC2 (racemic) [Example 006] = 1.9e-05
CN(C)S(=O)(=O)N1CCN(c2ccc(OCc3nn(C)c4c3-c3cccc5c(CCCOc6cccc7ccccc67)c(C(=O)O)n(c35)CCCCOC4)cc2)CC1 (single isomer, unassigned; enantiomer 2) [Example 1-20] = 2.32e-06

Short answer for CN1CCCn2c(C(=O)O)c(CCCOc3cccc4ccccc34)c3cccc(c32)-c2c(CCN3CCOCC3)nn(C)c2C1 (racemic) [Example 124] : IC50 was 1.48e-05

----------
# Tested on: SUDHL5
# protocol.description: Induction of cytotoxicity (CellTiter-Glo, 5 h), SUDHL5
# settings: read-out: Cytotox SUDHL5 [M] (median); SUDHL5 cells, cytotoxicity induction, CellTiter-Glo, 5 h incubation, median
Below: a set of entries, each annotated with reported IC50.
Form entry: value (M) — number only.

CN(C)S(=O)(=O)N1CCN(c2ccc(OCc3nn(C)c4c3-c3cccc5c(CCCOc6cccc7ccccc67)c(C(=O)O)n(c35)CCCCOC4)cc2)CC1 (single isomer, unassigned; enantiomer 2) [Example 1-20] = 2.11e-06
Cn1nc(COc2ccc(N3CCN(C(=O)C4CC4)CC3)cc2)c2c1COCCCCn1c(C(=O)O)c(CCCOc3cccc4ccccc34)c3cccc-2c31 (single isomer, unassigned; enantiomer 2) [Example 1-23] = 2.45e-05

Could you now consider this next molecule?
Short answer for COCCn1nc(C2CC2)c2c1COCCCCn1c(C(=O)O)c(CCCOc3cccc4c3CCCC4)c3cccc-2c31 (single isomer, unassigned; enantiomer 1) [Example 165] : IC50 was 5.71e-06

----------
Below: a set of entries, each annotated with reported IC50.
# Tested on: SUDHL10
# protocol.description: Induction of cytotoxicity (CellTiter-Glo, 5 h), SUDHL10
# settings: read-out: Cytotox SUDHL10 [M] (median); SUDHL10 cells, cytotoxicity induction, CellTiter-Glo, 5 h incubation, median
Form entry: value (M) — number only.

Short answer for CCc1nn(C)c2c1-c1c(C)ccc3c(C(C)CCOc4cccc5cc(F)ccc45)c(C(=O)O)n(c13)CCCCOC2 (single isomer, unassigned) [Example 262] : IC50 was 2.15e-05

Short answer for CN1CCCn2c(C(=O)O)c(CCCOc3cccc4ccccc34)c3cccc(c32)-c2c(COc3ccc(S(C)(=O)=O)cc3)nn(C)c2C1 (single isomer, unassigned) : IC50 was 1.26e-05

----------
Below: a set of entries, each annotated with reported IC50.
# Tested on: SUDHL5
# protocol.description: Induction of cytotoxicity (CellTiter-Glo, 5 h), SUDHL5
# settings: read-out: Cytotox SUDHL5 [M] (median); SUDHL5 cells, cytotoxicity induction, CellTiter-Glo, 5 h incubation, median
Form entry: value (M) — number only.

Short answer for CCc1nn(C)c2c1-c1c(C)ccc3c(CCCOc4cccc5cc(F)ccc45)c(C(=O)O)n(c13)CCCCOC2 (single isomer, unassigned) [Example 267] : IC50 was 1.11e-06

Short answer for Cn1nc(COc2ccc(N3CCN(S(=O)(=O)C4CC4)CC3)cc2)c2c1COCCCCn1c(C(=O)O)c(CCCOc3cccc4ccccc34)c3cccc-2c31 (single isomer, unassigned; enantiomer 2) [Example 1-13] : IC50 was 4.1e-07

Short answer for Cc1nn(CC(F)(F)F)c2c1-c1cccc3c(CCCOc4cccc5c4CCCC5)c(C(=O)O)n(c13)CCCCOC2 (single isomer, unassigned; enantiomer 1) [Example 162] : IC50 was 8.92e-06

Short answer for Cn1nc(COc2ccc(N3CCOCC3)cc2)c2c1COCC=CCn1c(C(=O)O)c(CCCOc3cccc4ccccc34)c3cccc-2c31 (single isomer, unassigned; enantiomer 2) : IC50 was 3.21e-05

----------
# target.or.system: MCL-1 (Homo sapiens, UniProt Q07820)
# Sequence (Q07820 whole entry): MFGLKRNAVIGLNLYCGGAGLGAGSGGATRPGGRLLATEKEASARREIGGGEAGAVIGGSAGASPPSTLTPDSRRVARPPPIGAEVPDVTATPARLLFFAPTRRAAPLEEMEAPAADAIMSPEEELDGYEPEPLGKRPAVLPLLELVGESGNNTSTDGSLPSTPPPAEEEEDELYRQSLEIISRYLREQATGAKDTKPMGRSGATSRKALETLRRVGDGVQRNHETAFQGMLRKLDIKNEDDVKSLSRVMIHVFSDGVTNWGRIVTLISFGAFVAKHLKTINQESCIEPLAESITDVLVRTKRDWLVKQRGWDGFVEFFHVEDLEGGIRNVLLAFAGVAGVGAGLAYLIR
# protocol.description: Protein-protein interaction assay MCL-1/Noxa BH3 peptide (MCL-1 assay), TR-FRET
# Format: binding
# settings: MBP-MCL-1 / Noxa BH3-derived peptide, median
property: IC50 (nM)

Use the examples below as a reference point.
CN1CCCn2c(C(=O)O)c(CCCOc3cccc4ccccc34)c3cccc(c32)-c2c(COc3ccc(N4CCN(S(=O)(=O)N(C)C)CC4)cc3)nn(C)c2C1 (single isomer, unassigned; enantiomer 1) [Example 1-15] = 3.03
Cc1c2c(nn1C1CC1)COCCCCn1c(C(=O)O)c(CCCOc3cccc4ccccc34)c3cccc-2c31 (single isomer, unassigned; enantiomer 2) [Example 094] = 120
CCc1nn(C)c2c1-c1cccc3c(CCCOc4cccc5cc(C(F)(F)F)ccc45)c(C(=O)O)n(c13)CCCCOC2 (single isomer, unassigned; enantiomer 1) [Example 314] = 33.5
Cc1nn(C)c2c1-c1cccc3c(CCCOc4cccc5ccccc45)c(C(=O)O)n(c13)CCCCN2 = 43.3

I = CN(C)Cc1nn(C)c2c1-c1cccc3c(CCCOc4cccc5ccccc45)c(C(=O)O)n(c13)CCCCOC2 (racemic)
II = Cn1nc(COc2ccc(N3CCN(S(=O)(=O)C4CC4)CC3)cc2)c2c1COCCCCn1c(C(=O)O)c(CCCOc3cccc4ccccc34)c3cccc-2c31 (single isomer, unassigned; enantiomer 1) [Example 1-12]
Task: Lab log: flag the item ( I or II ) with the smaller IC50 figure. Identify your selection by its label.
Output: II
(II: 68.8 nM, I: 185 nM)

A = Cc1c2c(nn1CCN1CCOCC1)CN(C)CCCn1c(C(=O)O)c(CCCOc3cccc4ccccc34)c3cccc-2c31 (single isomer, unassigned; enantiomer 2) [Example 061]
B = Cn1nc(CN2CCCC2)c2c1COCCCCn1c(C(=O)O)c(CCCOc3cccc4ccccc34)c3cccc-2c31 (single isomer, unassigned; enantiomer 2) [Example 337]
Task: Which one would you say has the larger IC50 value: A , or B ? Identify your selection by its label.
Output: B
(B: 977 nM, A: 32.2 nM)

P = Cc1c2c(nn1C)COCCCCn1c(C(=O)O)c(CCCOc3cccc4cc(Cl)ccc34)c3cccc-2c31 (single isomer, unassigned) [Example 296]
Q = CCc1nn(C)c2c1-c1c(C)ccc3c(CCCOc4cccc5cc(F)ccc45)c(C(=O)O)n(c13)CCCCOC2 (single isomer, unassigned) [Example 268]
Task: Lab log: flag the item ( P or Q ) with the smaller IC50 figure. Identify your selection by its label.
Output: P
(P: 3.31 nM, Q: 40.7 nM)
